Recorded viability, T/C by entry
- System: 616215-338-R-J1-PDC tumor spheroids, viability;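 further: spheroids exposed to agents for 7 days before readout; percent viability relative to DMSO vehicle control wells taken as 100%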
- Assay Overview: Anticancer human tumor 616215-338-R-J1-PDC patient-derived colon adenocarcinoma cell line growth inhibition [GQUAD]
- Measurement Parameters: second compound 0.0316 µM; first compound 1 µM; hits give low values; spheroids with HUVEC and MSC
- From the text: DNA G-quadruplex Stabilizer Agents in Combinations in Complex Spheroids A high-throughput screen of multi-cell type tumor spheroids was designed to identify active combinations of DNA G-quadruplex stabilizer agents and targeted small molecules. […] Compounds. […] If the clinical Cmax for an agent had not been determined, the highest concentration tested was 10 microM. […]

Known results for molecules:
INSERT INTO assay_data (molecule, result) VALUES
  ('Nc1ccn(C2OC(CO)C(O)C2(F)F)c(=O)n1 (stereo unspecified) + CN(C)c1ccc(Nc2c3ccc(NC(=O)CCN4CCCC4)cc3nc3cc(NC(=O)CCN4CCCC4)ccc23)cc1', '9.94%'),
  ('CC1COCCN1c1cc(C2(O)CC3CCC(C2)O3)c2cnn(-c3ccn[nH]3)c2n1 (stereo unspecified) + Cc1cnc(CNC(=O)c2c(=O)c3ccc(N4CCCN(C)CC4)nc3n3c2sc2ccccc23)cn1', '27.6%'),
  ('CC(C)n1c(=O)n(C)c2cnc3cc(F)c(-c4ccc(OCCCN5CCCCC5)nc4)cc3c21 + Cc1cnc(CNC(=O)c2c(=O)c3ccc(N4CCCN(C)CC4)nc3n3c2sc2ccccc23)cn1', '69.5%'),
  ('CC1COCCN1c1cc(-c2ccnn2C)c2ccnc(-c3ccn[nH]3)c2n1 (stereo unspecified) + CN(C)c1ccc(Nc2c3ccc(NC(=O)CCN4CCCC4)cc3nc3cc(NC(=O)CCN4CCCC4)ccc23)cc1', '25.6%'),
  ('C=CCn1c(=O)c2cnc(Nc3ccc(N4CCN(C)CC4)cc3)nc2n1-c1cccc(C(C)(C)O)n1 + Cc1cnc(CNC(=O)c2c(=O)c3ccc(N4CCCN(C)CC4)nc3n3c2sc2ccccc23)cn1', '32.2%'),
  ('COc1cccc2c1C(=O)c1c(O)c3c(c(O)c1C2=O)CC(O)(C(=O)CO)CC3OC1CC(N)C(O)C(C)O1 (stereo unspecified) + Cc1cnc(CNC(=O)c2c(=O)c3ccc(N4CCCN(C)CC4)nc3n3c2sc2ccccc23)cn1', '40.5%');

Prompt line: Fill in the blank: the reported viability, T/C of Nc1ccn(C2OC(CO)C(O)C2(F)F)c(=O)n1 (stereo unspecified) + Cc1cnc(CNC(=O)c2c(=O)c3ccc(N4CCCN(C)CC4)nc3n3c2sc2ccccc23)cn1 is ____.
Response line: 14.6%

Prompt line: Fill in the blank: the reported viability, T/C of CC(C)n1c(=O)n(C)c2cnc3cc(F)c(-c4ccc(OCCCN5CCCCC5)nc4)cc3c21 + Cc1[nH]c2ccc(F)cc2c1-c1nc2c3cccnc3c3ncccc3c2[nH]1 is ____.
Response line: 101%
